target.or.test.system: Toll-like receptor 2 (Homo sapiens) (UniProt O60603)
Sequence (O60603 whole entry): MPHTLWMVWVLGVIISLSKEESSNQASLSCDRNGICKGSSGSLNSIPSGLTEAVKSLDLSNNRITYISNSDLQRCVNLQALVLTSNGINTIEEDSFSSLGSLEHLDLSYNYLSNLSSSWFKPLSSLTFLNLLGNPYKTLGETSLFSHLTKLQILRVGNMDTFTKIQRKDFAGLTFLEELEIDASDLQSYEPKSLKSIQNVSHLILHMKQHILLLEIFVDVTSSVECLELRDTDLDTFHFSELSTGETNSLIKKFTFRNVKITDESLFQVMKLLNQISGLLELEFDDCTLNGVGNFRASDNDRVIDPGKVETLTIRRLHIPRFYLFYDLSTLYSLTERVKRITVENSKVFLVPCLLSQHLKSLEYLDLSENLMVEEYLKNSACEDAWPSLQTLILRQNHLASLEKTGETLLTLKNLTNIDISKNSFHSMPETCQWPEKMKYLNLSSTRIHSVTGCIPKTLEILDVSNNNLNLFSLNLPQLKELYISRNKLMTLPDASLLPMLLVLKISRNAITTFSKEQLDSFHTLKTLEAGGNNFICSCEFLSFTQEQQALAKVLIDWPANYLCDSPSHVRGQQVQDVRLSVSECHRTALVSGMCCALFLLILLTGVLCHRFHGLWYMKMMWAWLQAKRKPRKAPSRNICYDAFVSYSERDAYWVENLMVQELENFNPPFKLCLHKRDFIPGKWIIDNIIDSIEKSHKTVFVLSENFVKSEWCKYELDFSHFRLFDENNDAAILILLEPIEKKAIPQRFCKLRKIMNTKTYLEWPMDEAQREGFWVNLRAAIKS
protocol.notes: Activation of human TLR2 expressed in HEK293 cells assessed as IL-8 secretion at 30 to 300 nM after 48 hrs by ELISA
The source made the active and inactive calls. The calls are words filed in the database; no cut-off is given here.
endpoint.label: Activity

Consider the worked cases shown below.
compound	Activity
C=CC[C@@H](NC(=O)[C@H](CSCC(COC(=O)CCCCCCCCCCCCCCC)OC(=O)CCCCCCCCCCCCCCC)NC(=O)NCCCCCCCCCCCCCC)C(=O)N[C@@H](CCCCN)C(=O)N[C@@H](CCCCN)C(=O)N[C@@H](CCCCN)C(=O)N[C@@H](CCCCN)C(N)=O (mixture of isomers)	inactive
CCCCCCCCCCCCCCCC(=O)OCC(CSC[C@H](NC(=O)NCCCCCCCCCCCCCC)C(=O)N[C@@H](Cc1ccc2ccccc2c1)C(=O)N[C@@H](CCCCN)C(=O)N[C@@H](CCCCN)C(=O)N[C@@H](CCCCN)C(=O)N[C@@H](CCCCN)C(N)=O)OC(=O)CCCCCCCCCCCCCCC (mixture of isomers)	inactive
CCCCCCCCCCCCCCCC(=O)OCC(CSC[C@H](NC(=O)NCCCCCCCCCCCCCC)C(=O)NC[C@H](CCCCN)C(=O)N[C@@H](CCCCN)C(=O)N[C@@H](CCCCN)C(=O)N[C@@H](CCCCN)C(=O)N[C@@H](CCCCN)C(N)=O)OC(=O)CCCCCCCCCCCCCCC (mixture of isomers)	inactive
CCCCCCCCCCCCCCCC(=O)OCC(CSC[C@H](NC(=O)NCCCCCCCCCCCCCC)C(=O)N[C@@H](CS)C(=O)N[C@@H](CCCCN)C(=O)N[C@@H](CCCCN)C(=O)N[C@@H](CCCCN)C(=O)N[C@@H](CCCCN)C(N)=O)OC(=O)CCCCCCCCCCCCCCC (mixture of isomers)	inactive

For reference, reported Activity for CCCCCCCCCCCCCCCC(=O)OCC(CSC[C@H](NC(=O)NCCCCCCCCCCCCCC)C(=O)N[C@H](CS)C(=O)N[C@@H](CCCCN)C(=O)N[C@@H](CCCCN)C(=O)N[C@@H](CCCCN)C(=O)N[C@@H](CCCCN)C(N)=O)OC(=O)CCCCCCCCCCCCCCC (mixture of isomers) stands at inactive

###

target.or.test.system: Toll-like receptor 2 (Homo sapiens) (UniProt O60603)
protocol.notes: Activation of human TLR2 expressed in HEK293 cells assessed as IL-8 secretion after 48 hrs by ELISA

molecule	Activity
CCCCCCCCCCCCCCCC(=O)OCC(CSC[C@H](NC(=O)NCCCCCCCCCCCCCC)C(=O)N[C@@H](CN)C(=O)N[C@@H](CCCCN)C(=O)N[C@@H](CCCCN)C(=O)N[C@@H](CCCCN)C(=O)N[C@@H](CCCCN)C(N)=O)OC(=O)CCCCCCCCCCCCCCC (mixture of isomers)	Dose-dependent effect
CCCCCCCCCCCCCCCC(=O)OCC(CSC[C@H](NC(=O)NCCCCCCCCCCCCCC)C(=O)N[C@@H](CC)C(=O)N[C@@H](CCCCN)C(=O)N[C@@H](CCCCN)C(=O)N[C@@H](CCCCN)C(=O)N[C@@H](CCCCN)C(N)=O)OC(=O)CCCCCCCCCCCCCCC (mixture of isomers)	Dose-dependent effect
